Where do the numbers come from? From the supplement of paper PMC9170038.

Tested on: MS2 coat protein
assay.remarks: apparent KD of MS2 coat protein; higher = weaker reporter binding
particulars: Eterna round: R107; input ligand: none
observed.property: apparent KD of MS2 coat protein
Units required after the number.

Examples with their reported apparent KD of MS2 coat protein follow.
{"biopolymer.sequence": "GAGCACAUGAGGAUCACCCAUGUUGGCACACGAGGACCGGUACGGCCGCCACUCGCGGCGGGAAUAACUUUGCGCAGAUGAUGGG [theeternabot_sameState_MS2_Trp_A_50]", "target.entity": "MS2 coat protein", "recorded.result": "23.9 nM"}
{"biopolymer.sequence": "UGUAAUGGGAUCAACCCAUGAGAGUCUGAAGGAGCGAUCGUAAGAUCAGGUAGGUCGCGGGAGACAUGAGGAUCACCCAUGUAUA [#23 Exclusion - Arginine A]", "target.entity": "MS2 coat protein", "recorded.result": "41 nM"}
{"biopolymer.sequence": "AAUAUAUAUCACGAACUGUGGUGUAUGUUCCGAGGACCGGUACGGCCGCCACUCGCGUGGUUCCACAUGAGGAUCACCCAUGUUG [XTryp A #8]", "target.entity": "MS2 coat protein", "recorded.result": "16.8 nM"}

## Input In one line, give reported apparent KD of MS2 coat protein of the entry UCGCCCGGGUCGGCCGCCACUGAGGUGAUAUGACAUGAGGAUCACCCAUGUUGUCAUGUGGAACAUAGGACCGGGACCCGGGCGA [Exclusion - Tryptophan B Attempt #2 (HarryS)] .
## Output 18.5 nM

## Input In one line, give reported apparent KD of MS2 coat protein of the entry GGGCAAGAGGGAAGGAGCGUUAGCUGAGUCACAUGAGGAUCACCCAUGUCGCACGUAGUAUGACAGGUAGGUCGCCCUCUACCCU [SS-ArgB15] .
## Output 18.1 nM

## Input In one line, give reported apparent KD of MS2 coat protein of the entry AUCCAUAGCCGAAGGAGCGCAGUAGGAUGACAUGAGGAUCACCCAUGUGUGUGAUGUGGAUUGCAGGUAGGUCGCGGAGUGGGAU [Exclusion - Arginine B (Freestyle 6)] .
## Output 58.7 nM

---

Tested on: MS2 coat protein
assay.remarks: apparent KD of MS2 coat protein; higher = weaker reporter binding
particulars: Eterna round: R107; input ligand: theophylline 2 mM
Listed below: apparent KD of MS2 coat protein values for each entry.
Numeric only. Scale: nM

Examples with their reported apparent KD of MS2 coat protein follow.
{"biopolymer.sequence": "GCACGACAUGAGGAUCACCCAUGUGCAGAUACCAGUAAUGUAUAUUACCCUUGGCAGCUGAGUAGGUCUGGAGGGCUAUAGGUAA [Same State Theophylline A GF11]", "apparent KD of MS2 coat protein [nM]": 15.4}
{"biopolymer.sequence": "AUAACAUGAGGAUCACCCAUGUAAGCAGAUACCAGCUAGGAAACUAGCCCUUGGCAGCUGCAAGGUGAUCCUGCUGCCAAGGUAU [(M1)-(M2)-(T1)-(T2)-(M)'-(T)'_Design7]", "apparent KD of MS2 coat protein [nM]": 130}
{"biopolymer.sequence": "GGGCCCGGGCCGCGCGCGGCCCGGGCCCAACGAGGACCGGUACGGCCGCCACUCGAACGAGUGGGUACAUGAGGAUCACCCAUGU [Aaa]", "apparent KD of MS2 coat protein [nM]": 45}
{"biopolymer.sequence": "AGCAUCUAGUCGGCCGCCACUCUUAUUACAUGAGGAUCACCCAUGUUUAAUUCAUGGUUAUAUUUGAGGACCGGGACAUUUGCAU [JR_ExcTryptoB_Sub007]", "apparent KD of MS2 coat protein [nM]": 74.9}
{"biopolymer.sequence": "AUACAUGAGGCGGCCGCCACUUUACAUGAGGAUCAACAUGAGGAUCACCCAUGUUACAUGUGGAUAAGGACCGGGCCUCAUGUAU [Same State Tryptophan B 2]", "apparent KD of MS2 coat protein [nM]": 313}
{"biopolymer.sequence": "AUACGUAACAGAAGGAGCGCACCGACAUGAGGAUCACCCAUGUGGGAUGGGACUCUUUUGGUGCAGGUAGGUCGCUGUCACGCAU [Beatattian]", "apparent KD of MS2 coat protein [nM]": 61.2}
{"biopolymer.sequence": "UGUAUGGACUGAAGGAGCGCCUCAAAAUAACAUGAGGAUCACCCAUGUAAGGCGAAAGCCGGGCAGGUAGGUCGCAGUCCAUACU [ArgBX 3 #StaticStem #MS2Late]", "apparent KD of MS2 coat protein [nM]": 17}
{"biopolymer.sequence": "AUAACAUGAGGAUCACCCAUGUAUUGGUAACGAGGACCGGUACGGCCGCCACUCGUAUUUUGGUGGUAUUAUAUAUAUAUGAUUA [JR_SSTryptoA_Sub017]", "apparent KD of MS2 coat protein [nM]": 20.6}

## Input In one line, give reported apparent KD of MS2 coat protein of the entry AAUAAUAGGUGAUCUUAAGUCGUACCGUAACGAGGACCGGUACGGCCGCCACUCGAACAUGAGGAUCACCCAUGUAUGUAUGAUA [whbob_SS_trypto A_f5] .
## Output 300

## Input In one line, give reported apparent KD of MS2 coat protein of the entry GCAACGCUGUCGGCCGCCACUUUUACAUUGGCCGUGCUGUCUCUACAUGAGGAUCACCCAUGUGGAAGGACCGGGACAGCACACU [Arzaleer] .
## Output 44.7

## Input In one line, give reported apparent KD of MS2 coat protein of the entry CGAGUGCUGUCGGCCGCCACUGCACAUGAGGAUCACCCAUGUAAAAGCUGGCUGUGACUGGUGUUCAGGACCGGGACAGGGUCUU [Inriedzaan] .
## Output 11.7

## Input In one line, give reported apparent KD of MS2 coat protein of the entry ACAAGGACAUGAGGAUCACCCAUGUGGGAAGGAGCGCAUAAAUAUGCAGGUAGGUCGCCCGGCGUGAUAUUUAAUAUUUUAAUAA [Exclusion - Arginine A] .
## Output 73.5

## Input In one line, give reported apparent KD of MS2 coat protein of the entry UGGGUCGGAUGAGGAAAUUGUCCGACGUAUCGAGGACCGGUACGGCCGCCACUCGGUUGUACAUGAGGAUCACCCAUGUCAGGGU [#1 Same State - Tryptophan A Attempt #15 (HarryS)] .
## Output 327

## Input In one line, give reported apparent KD of MS2 coat protein of the entry GGUGGCGUGACGGAUACCAGCCACCACCGCAAGACCACAUGAGGAUCACCCAUGUUGGGUGGCCCUUGGCAGCUGUCGUGCGGCG [#1 Same State - Theophylline B Attempt #19 (HarryS)] .
## Output 475
